Tested on: CAMK2G
EXPERIMENTAL_CONTEXT: concentration: 1 μM, replicates: in singlicate; n = 1;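 further: KINOMEscan kinase panel screen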
READOUT_KIND: %Inh (%)
Numbers only, in %.

Known results for compounds:
Need %Inh, item Cl.Cn1ccc(-c2cccc(Nc3ccnc4cc(-c5nccs5)ccc34)c2)n1 [GW525701]
21

Need %Inh, item O=C(Nc1ccccc1F)NC1CCN(c2ccnc(Nc3ccc(F)cc3)n2)C1 (stereo not drawn) [GSK1379722]
12

Need %Inh, item Oc1ccc2ncnc(Nc3ccc(OCc4ccccc4)cc3)c2c1 [GI262866]
2

Need %Inh, item "CCc1nc(-c2cccc(C)c2)c(-c2ccnc(NC(=O)c3ccccc3)c2)s1"
10

Need %Inh, item CCC(CC)(CC)n1cnc2c(N)ncnc21 [SKF-97620]
0

Need %Inh, item Cl.c1ccc(Cn2ncc3cc(Nc4ncnc5ccccc45)ccc32)cc1 [GW273749]
25

Need %Inh, item COC(=O)c1cccc(NC(=O)NCCNc2ccnc(Nc3ccc(F)cc3)n2)c1 [GSK1379883]
17

Need %Inh, item Cc1cc(N2CCC(NS(=O)(=O)c3ccc(F)cc3)CC2)nc(Nc2cccc(C#N)c2)n1.O=C(O)C(F)(F)F [GSK1653537]
1

# ---- query compound ----
Need %Inh, item "OCCOCCn1ccc2ncnc(Nc3ccc(Oc4cccc(Cl)c4)c(Cl)c3)c21"
0

###

Test system: PRKD1
EXPERIMENTAL_CONTEXT: concentration: 1 μM, replicates: in singlicate; n = 1
READOUT_KIND: %Inh (%)
One number for each entry, in %.

Need %Inh, item CCn1c(-c2ccncc2)nc2cnccc21 [SB-735216]
0

Need %Inh, item "O=C(Nc1ccccc1)Nc1ccc(Oc2ccc3nccn3n2)cc1"
24

Need %Inh, item c1ccc(-c2ccc3c(-c4ccnc(Nc5ccc6c(c5)OCCO6)n4)cnn3n2)cc1 [GW818941]
0

Need %Inh, item CCc1nc(-c2cccc(N(C)S(=O)(=O)c3ccccc3)c2)c(-c2ccnc(Nc3ccc(N4CCN(C(C)=O)CC4)nc3)n2)s1 [GSK1645895]
3

More entries:
Need %Inh, item COc1ccc(Nc2nccc(N3CCC(NC(=O)Nc4ccc5c(c4)OCO5)C3)n2)cc1 (centres unmarked) [GSK1379745]
1

###

So I've got a bunch of compounds here, and I need their %Inh values.
Test system: ANKK1
EXPERIMENTAL_CONTEXT: concentration: 1 μM, replicates: in singlicate; n = 1
Numbers only, in %.

Need %Inh, item "FC(F)(F)c1cc(Nc2nccc(-c3c(-c4ccc(Cl)cc4)nn4ncccc34)n2)ccc1Cl"
0

Below is a list of compounds. For each, state its recorded %Inh.
1. Nc1n[nH]c2nnc(-c3ccccc3)cc12
2. CN1CCC(n2cnc(-c3ccc(F)cc3)c2-c2ccnc(NC3CCNCC3)n2)CC1
3. NC(=O)c1sc(-n2cnc3ccccc32)cc1OCc1ccccc1F
4. Fc1ccc(Nc2nccc(-c3c(-c4ccc(Cl)cc4)nn4ncccc34)n2)cc1F
5. CC(C)(C)c1ccc(-n2cnc3c(N)ncnc32)cc1
6. CC(C)N1CCC(n2cnc(-c3ccc(F)cc3)c2-c2ccnc(N)n2)CC1

0
0
0
10
24
0

Below is a list of compounds. For each, state its recorded %Inh.
1. COC(=O)c1c(-c2ccccc2)c2cc(Cl)ccc2c(=O)n1Cc1ccc(S(C)(=O)=O)cc1
2. Cc1cc(N2CCC(NS(=O)(=O)c3ccc(F)cc3)CC2)nc(Nc2cccc(C#N)c2)n1.O=C(O)C(F)(F)F

[0, 3]
